experiment: qHTS for differential inhibitors of proliferation of Plasmodium falciparum line Dd2 (AID 1882); details: Plasmodium falciparum Dd2 proliferation inhibition; series mostly up to 28.7 µM; also: nearly all actives have a fitted effect of over 65% in size; also: potency is read from the fitted curve at half-maximal effect
Records with an inconclusive call do not appear. Active and inactive are the calls of the source. Calls follow the shape of the dose curve; as a rule, active = well fitted inhibition curve with a large enough effect; inconclusive = small, poorly fitted or top-dose-only effect; inactive = flat fitted curve, though single readings scatter.
test.readout: Potency

Take a look at these entries with their results.
# compound, Potency
rows = [
    ("O=C(O)CNC(=O)C(CS)Cc1ccccc1 (stereo not drawn)", "inactive"),
    ("Oc1cc2c(cc1O)CN(C(=S)NCCc1ccc(Cl)cc1)CCC2", "8.91 µM (active)"),
    ("CC1(C)CCC=[N+]1[O-]", "inactive"),
    ("COc1cc(OC)c(/C=C2/C(=O)Nc3ccccc32)c(OC)c1", "inactive"),
    ("O=C(Nc1ccccc1)c1cc([N+](=O)[O-])ccc1Cl", "inactive"),
    ("O=C(O)[C@@H]1C[C@@H](C(=O)O)N1", "inactive"),
    ("CN=c1nc(-c2ccccc2)n(-c2ccccc2)s1", "inactive"),
    ("NC[C@@H]1O[C@H](C23CC4CC(CC(C4)C2)C3)Cc2c1ccc(O)c2O", "8.91 µM (active)"),
]

What does the data say about its Potency? Entry: "CN1CCc2cc(NC(=O)Nc3cccnc3)ccc21"
inactive

What does the data say about its Potency? Entry: "Fc1ccc(C(OCCCc2cnc[nH]2)c2ccc(F)cc2)cc1"
8.91 µM (active)

What does the data say about its Potency? Entry: "CCCCCCCC/C=C\CCCCCCCC(=O)NCCO"
8.91 µM (active)

What does the data say about its Potency? Entry: "CC[C@@H](C)[C@H]1O[C@]2(CC[C@@H]1C)C[C@@H]1C[C@@H](C/C=C(\C)[C@@H](O[C@H]3C[C@H](OC)[C@@H](O[C@H]4C[C@H](OC)[C@@H](O)[C@H](C)O4)[C@H](C)O3)[C@@H](C)/C=C/C=C3\CO[C@@H]4[C@H](O)C(C)=C[C@@H](C(=O)O1)[C@]34O)O2"
1.78 µM (active)

What does the data say about its Potency? Entry: CCCCC/C=C\CC(O)/C=C/c1cccc(CC(O)CCCCO)n1 (stereo not drawn)
inactive
